biological target: UniProt Q06187; assay: Z'-LYTE kinase inhibition assay against BTK; assay type: biochemical; details: compound at 100 nM; ATP concentration at Km
Sequence (Q06187 whole entry): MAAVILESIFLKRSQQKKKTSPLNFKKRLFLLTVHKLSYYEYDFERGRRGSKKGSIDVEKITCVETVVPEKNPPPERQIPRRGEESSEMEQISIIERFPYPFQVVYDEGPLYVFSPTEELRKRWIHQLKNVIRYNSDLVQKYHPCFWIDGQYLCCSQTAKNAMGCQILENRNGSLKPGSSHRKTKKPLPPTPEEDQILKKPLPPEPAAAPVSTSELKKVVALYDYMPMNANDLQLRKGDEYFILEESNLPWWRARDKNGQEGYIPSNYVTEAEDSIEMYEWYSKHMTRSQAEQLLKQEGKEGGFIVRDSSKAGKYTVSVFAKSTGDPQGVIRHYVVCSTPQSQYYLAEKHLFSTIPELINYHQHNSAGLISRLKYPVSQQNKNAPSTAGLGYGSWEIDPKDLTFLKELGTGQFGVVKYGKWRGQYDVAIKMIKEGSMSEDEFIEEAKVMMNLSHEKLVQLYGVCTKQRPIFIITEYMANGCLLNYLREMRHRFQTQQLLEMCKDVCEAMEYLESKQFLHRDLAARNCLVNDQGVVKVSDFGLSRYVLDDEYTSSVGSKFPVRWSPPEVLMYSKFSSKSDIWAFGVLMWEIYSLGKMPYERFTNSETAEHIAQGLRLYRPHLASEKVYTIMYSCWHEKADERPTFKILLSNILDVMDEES
Parameter: inhibition at 0.1 µM. Scope: all listed entries.

compound | inhibition at 0.1 µM
C=CC(=O)Nc1cccc(-c2cc(-c3ccc(C(=O)Nc4cc(C5CC5)ccn4)cc3F)cc3cncnc23)c1 | > 50%

Ask: Quick check: inhibition at 0.1 µM of C=CC(=O)Nc1cccc(-c2cc(-c3ccc(C(=O)Nc4ccccn4)cc3Cl)c(N)c3cncnc23)c1 ?
Reply: > 50%

Ask: Quick check: inhibition at 0.1 µM of C=CC(=O)N1CCC(c2cc(-c3ccc(C(=O)Nc4cc(C(F)(F)F)ccn4)cc3)n3cnccc23)C1 (centres unmarked) ?
Reply: > 50%

Ask: Quick check: inhibition at 0.1 µM of C=CC(=O)Nc1cccc(-c2cc(-c3ccccc3)cc3cnc(Nc4ccccc4)nc23)c1 ?
Reply: > 50%

Ask: Quick check: inhibition at 0.1 µM of C=CC(=O)Nc1cccc(-c2cc(-c3ccc(Oc4cc(C(F)(F)F)ccn4)cc3F)cc3cncnc23)c1 ?
Reply: > 50%

Ask: Quick check: inhibition at 0.1 µM of C=CC(=O)N1CCC(n2c(-c3ccccc3)nc3cncnc32)C1 (centres unmarked) ?
Reply: < 50%

Ask: Quick check: inhibition at 0.1 µM of C=CC(=O)N1CCC(c2cc(-c3ccc(C(=O)Nc4ncccc4F)cc3)c(N)c3cncnc23)C1 (centres unmarked) ?
Reply: < 50%

Ask: Quick check: inhibition at 0.1 µM of C=CC(=O)N1CCC(c2cc(-c3ccc(C(=O)Nc4cc(F)ccn4)cc3)n3cnccc23)C1 (centres unmarked) ?
Reply: > 50%

Ask: Quick check: inhibition at 0.1 µM of C=CC(=O)N1CCC(c2cc(-c3ccc(Oc4cc(C(F)(F)F)ccn4)cc3F)c(N)c3cncnc23)C1 (centres unmarked) ?
Reply: < 50%

Ask: Quick check: inhibition at 0.1 µM of CC#CC(=O)N1CCC(c2nc(-c3ccc(Oc4ccccn4)c(F)c3)n3c(N)nccc23)C1 (centres unmarked) ?
Reply: > 50%

Ask: Quick check: inhibition at 0.1 µM of C=CC(=O)Nc1cccc(-c2cc(-c3ccccc3Cl)cc3cncnc23)c1 ?
Reply: > 50%

Ask: Quick check: inhibition at 0.1 µM of C=CC(=O)Nc1cccc(-c2cc(-c3cccnc3)cc3cncnc23)c1 ?
Reply: > 50%

Ask: Quick check: inhibition at 0.1 µM of C=CC(=O)N1CCCC(n2c(-c3ccccc3)nc3cncnc32)C1 (centres unmarked) ?
Reply: < 50%

Ask: Quick check: inhibition at 0.1 µM of C=CC(=O)Nc1cccc(-c2cc(-c3ccc(Oc4ccccc4)nc3)cc3cncnc23)c1 ?
Reply: > 50%

Ask: Quick check: inhibition at 0.1 µM of C=CC(=O)N1CCC(c2nc(-c3ccc(C(=O)Nc4ccccn4)cc3)n3c(N)ncnc23)C1 (centres unmarked) ?
Reply: > 50%

Ask: Quick check: inhibition at 0.1 µM of C=CC(=O)N1CCC(c2cc(-c3ccc(Oc4ccccn4)cc3OC)cc3cncnc23)C1 (centres unmarked) ?
Reply: < 50%

Ask: Quick check: inhibition at 0.1 µM of C=CC(=O)Nc1cccc(-c2cc(-c3ccc(C)nc3)cc3cncnc23)c1 ?
Reply: > 50%
